For each of the binders below, state its % Kill, MCF7/PRLR cells.
Molecular target: T1, human prolactin receptor (PRLR) (human, UniProt P16471 25-622)
T1 sequence: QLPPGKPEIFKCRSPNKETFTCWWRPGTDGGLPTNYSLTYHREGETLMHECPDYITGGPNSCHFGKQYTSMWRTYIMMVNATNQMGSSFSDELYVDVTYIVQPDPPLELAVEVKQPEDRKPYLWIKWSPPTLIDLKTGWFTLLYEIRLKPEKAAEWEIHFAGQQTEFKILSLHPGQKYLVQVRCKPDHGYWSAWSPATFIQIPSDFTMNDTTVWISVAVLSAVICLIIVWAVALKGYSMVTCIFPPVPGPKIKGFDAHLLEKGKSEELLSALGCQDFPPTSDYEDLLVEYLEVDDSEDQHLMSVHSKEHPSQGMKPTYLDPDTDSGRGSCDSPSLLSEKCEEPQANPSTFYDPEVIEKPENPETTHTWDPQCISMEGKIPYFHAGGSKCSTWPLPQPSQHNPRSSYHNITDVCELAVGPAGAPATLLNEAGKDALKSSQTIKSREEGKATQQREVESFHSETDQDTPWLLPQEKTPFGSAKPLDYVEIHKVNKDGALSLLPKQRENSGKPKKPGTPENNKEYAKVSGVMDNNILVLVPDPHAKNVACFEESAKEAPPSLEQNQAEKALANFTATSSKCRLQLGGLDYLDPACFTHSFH
Assay: cell-based or functional assay
Reply with a number, then the unit it belongs to.

Solved cases below.
% Kill, MCF7/PRLR cells lookup needed for H1H6782P-DM1 (antibody, human IgG1, V domains shown, DM1 conjugated through SMCC linker; attachment residues not stated) VH: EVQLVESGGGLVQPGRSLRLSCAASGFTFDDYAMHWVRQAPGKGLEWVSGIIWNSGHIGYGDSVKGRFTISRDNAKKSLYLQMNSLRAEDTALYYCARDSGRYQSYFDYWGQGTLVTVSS VL: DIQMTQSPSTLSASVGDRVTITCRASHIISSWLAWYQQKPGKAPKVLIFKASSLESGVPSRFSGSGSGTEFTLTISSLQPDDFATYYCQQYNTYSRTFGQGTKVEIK , thanks.
85%

% Kill, MCF7/PRLR cells lookup needed for H1H6959N2-DM1 (antibody, human IgG1, V domains shown, DM1 conjugated through SMCC linker; attachment residues not stated) VH: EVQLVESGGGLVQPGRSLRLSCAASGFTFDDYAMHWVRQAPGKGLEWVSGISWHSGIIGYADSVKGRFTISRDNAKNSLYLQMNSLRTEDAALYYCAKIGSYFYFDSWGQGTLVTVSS VL: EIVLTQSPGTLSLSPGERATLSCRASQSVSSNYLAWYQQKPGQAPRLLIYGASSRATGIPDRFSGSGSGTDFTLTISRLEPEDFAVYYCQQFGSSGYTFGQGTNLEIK , thanks.
80%

// switching to the query binder
% Kill, MCF7/PRLR cells lookup needed for H1H6953N-DM1 (antibody, human IgG1, V domains shown, DM1 conjugated through SMCC linker; attachment residues not stated) VH: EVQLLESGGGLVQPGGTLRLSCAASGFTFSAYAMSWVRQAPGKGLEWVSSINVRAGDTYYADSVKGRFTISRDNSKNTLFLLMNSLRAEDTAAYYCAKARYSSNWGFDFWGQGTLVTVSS VL: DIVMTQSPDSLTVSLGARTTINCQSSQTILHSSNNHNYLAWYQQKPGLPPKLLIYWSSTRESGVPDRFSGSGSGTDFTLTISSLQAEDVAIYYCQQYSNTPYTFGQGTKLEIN , thanks.
76%
